system: EKVX; experiment: NCI tumour cell line growth inhibition, 48 h
Activity calls are given as the source filed them. Cut-off read from the data, not from the text of the source: active = GI50 up to about 1.1 µM and inactive = higher.
readout: GI50

[[record]]
compound = "CCOC(=O)c1csc(NC(=O)CN(C)C)n1"
readout = "GI50"
result = "> 100 µM (inactive)"

[[record]]
compound = "COc1cc(/C=C2/C(=O)N(C(=O)OCC(C)C)C(Cc3cc(OC)c(OC)c(C)c3OC)C(=O)N2Cc2ccccc2)c(OC)c(C)c1OC (stereo not drawn)"
readout = "GI50"
result = "72.1 µM (inactive)"

[[record]]
compound = "C=CC(C)(C)n1cc(C2=C(O)C(=O)C(c3c(CC=C(C)C)[nH]c4ccccc34)=C(O)C2=O)c2ccccc21"
readout = "GI50"
result = "1.91 µM (inactive)"

[[record]]
compound = "CCN(CC)/C(SCc1ccccc1)=C(\\C(Cl)=C(Cl)Cl)[N+](=O)[O-]"
readout = "GI50"
result = "22.9 µM (inactive)"

[[record]]
compound = "O=[N+]([O-])c1ccc(C2N3CCCCC3[C@@H]3c4[nH]c5ccccc5c4CCN23)cc1 (stereo partly drawn)"
readout = "GI50"
result = "29.9 µM (inactive)"

[[record]]
compound = "CC(=O)Nc1ccc(S(=O)(=O)[N-]C2C(=O)c3ccccc3C(=O)C2[n+]2ccccc2)cc1 (stereo not drawn)"
readout = "GI50"
result = "31 µM (inactive)"

[[record]]
compound = "O=C(O)c1nc(-c2ccccc2)ncc1-c1nnnn1-c1ccccc1"
readout = "GI50"
result = "> 100 µM (inactive)"

[[record]]
compound = "Cc1cc(Nc2ccc(/N=N/c3ccc(O)c4ncccc34)cc2)nc(C)n1"
readout = "GI50"
result = "34.8 µM (inactive)"

[[record]]
compound = "COc1ccc2c3c1O[C@H](c1ccc(O)cc1)[C@H]3[N+](C)(C)CC2"
readout = "GI50"
result = "> 100 µM (inactive)"

[[record]]
compound = "CCOC(=O)CN1C(=O)c2c(c(C)n(-c3ccccc3)c2C)C1=O"
readout = "GI50"
result = "> 100 µM (inactive)"

[[record]]
compound = "O=P1(NCCCl)OCCCN1CCCl (stereo not drawn) [IFOSFAMIDE]"
readout = "GI50"
result = "352 µM (inactive)"

[[record]]
compound = "O=C/C=C/c1ccco1"
readout = "GI50"
result = "> 100 µM (inactive)"

[[record]]
compound = "O=c1c2ccccc2oc2nc3n(c(=O)c12)CCCS3"
readout = "GI50"
result = "> 100 µM (inactive)"

[[record]]
compound = "CC(Cl)CC(=O)OCC1CCCN2CCCCC12 (stereo not drawn)"
readout = "GI50"
result = "> 100 µM (inactive)"

[[record]]
compound = "CC(=O)OC1COC(n2c(=S)n(-c3ccc(C)cc3)c(=O)c3ccccc32)C(OC(C)=O)C1OC(C)=O (stereo not drawn)"
readout = "GI50"
result = "> 100 µM (inactive)"

[[record]]
compound = "CCC1CCCCN1CC(C(C)=O)C(c1ccccc1)c1c(O)c2ccccc2oc1=O (stereo not drawn)"
readout = "GI50"
result = "> 100 µM (inactive)"

[[record]]
compound = "Cc1nc(-[n+]2nc(-c3ccncc3)nn2-c2ccccc2)sc1C"
readout = "GI50"
result = "27.2 µM (inactive)"

[[record]]
compound = "O=C1C[C@H]2[C@@H](O1)[C@@H](O)CN1C(=O)c3ccccc3[C@H]21"
readout = "GI50"
result = "> 100 µM (inactive)"

